Molecular target: Sodium-dependent dopamine transporter (Rattus norvegicus)
Sequence (P23977 whole entry): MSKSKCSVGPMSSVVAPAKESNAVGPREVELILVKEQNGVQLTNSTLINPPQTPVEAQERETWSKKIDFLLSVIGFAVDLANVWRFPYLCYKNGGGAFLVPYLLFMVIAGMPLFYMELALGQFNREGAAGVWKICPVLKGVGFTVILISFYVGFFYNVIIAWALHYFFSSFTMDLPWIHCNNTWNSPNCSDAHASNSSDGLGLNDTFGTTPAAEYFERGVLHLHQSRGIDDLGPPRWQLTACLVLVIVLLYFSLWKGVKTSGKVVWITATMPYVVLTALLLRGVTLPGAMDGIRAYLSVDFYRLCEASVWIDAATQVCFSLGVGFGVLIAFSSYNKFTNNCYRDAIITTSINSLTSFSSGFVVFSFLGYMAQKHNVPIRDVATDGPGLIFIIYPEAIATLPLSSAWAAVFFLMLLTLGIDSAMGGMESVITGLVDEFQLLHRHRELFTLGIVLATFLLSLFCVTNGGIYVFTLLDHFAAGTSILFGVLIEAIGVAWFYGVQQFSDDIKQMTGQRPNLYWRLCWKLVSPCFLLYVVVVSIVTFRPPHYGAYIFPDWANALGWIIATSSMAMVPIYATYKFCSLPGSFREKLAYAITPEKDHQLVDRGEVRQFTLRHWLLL
Assay: Inhibition of [3H]WIN-35428 binding to Dopamine transporter in rat striatal synaptic membranes
Class (required): determined from IC50; valid ranges are zone 1 (below 40 nM), zone 2 (40 nM to below 400 nM), zone 3 (400 nM or more)

Worked examples follow.
[
  {
    "Molecule": "Cc1ccc(C2CC3CCC(C2C(=O)OC/C=C/I)N3C)cc1 (centres undefined)",
    "System": "Sodium-dependent dopamine transporter (Rattus norvegicus)",
    "Cat": "zone 2"
  },
  {
    "Molecule": "COC(=O)C1C(c2ccc(Cl)cc2)CC2CCC1N2C/C=C/I (centres undefined)",
    "System": "Sodium-dependent dopamine transporter (Rattus norvegicus)",
    "Cat": "zone 1"
  },
  {
    "Molecule": "CN1C2CCC1C(C(=O)OC/C=C/I)C(c1ccc(F)cc1)C2 (centres undefined)",
    "System": "Sodium-dependent dopamine transporter (Rattus norvegicus)",
    "Cat": "zone 3"
  },
  {
    "Molecule": "CN1C2CCC1C(C(=O)OC/C=C\\I)C(c1ccc(F)cc1)C2 (centres undefined)",
    "System": "Sodium-dependent dopamine transporter (Rattus norvegicus)",
    "Cat": "zone 2"
  }
]

[in] Exam item: assign CN1C2CCC1C(C(=O)OC/C=C/I)C(c1ccc(Cl)cc1)C2 (centres undefined) to the correct category.
[out] zone 2

[in] Then what about the molecule CN1C2CCC1C(C(=O)OC/C=C/I)C(c1ccccc1)C2 (centres undefined) ?
[out] zone 3

[in] Then what about the molecule CN1C2CCC1C(C(=O)OC/C=C\I)C(c1ccc(Cl)cc1)C2 (centres undefined) ?
[out] zone 1

[in] Then what about the molecule CN1C2CCC1C(C(=O)OC/C=C\I)C(c1ccccc1)C2 (centres undefined) ?
[out] zone 2
